Every entry's value here was drawn from PubChem BioAssay (NCI).

Tested on: OVCAR-5 ovarian
Assay: NCI-60 one-dose screen, 48 h (100 = growth as untreated, 0 = no growth, -100 = all killed)
Conditions: 10 µM unless noted
This is part of a sample that, as a whole, favours compounds with a hit. Of some 83,000 tested, about 20% had one in any assay.

{"given_smiles": "CC[C@H](Nc1nc(N)nc(C)c1C#N)c1nc2cccc(NCc3ccc(C(=O)NO)cc3)c2c(=O)n1-c1ccccc1", "growth (%)": 16.8}
{"given_smiles": "C[C@H](CCC(=O)O)[C@H]1CC[C@H]2[C@@H]3CC[C@@H]4/C(=C\\c5ccco5)C(=O)/C(=C\\c5ccco5)C[C@]4(C)[C@H]3CC[C@]12C", "growth (%)": 113}
{"given_smiles": "COc1ccc(-c2nn(-c3ccccc3)cc2/C=C/C(=O)OCc2cn(-c3ccc(F)c(Cl)c3)nn2)cc1", "growth (%)": 106}
{"given_smiles": "C/C=C/C(N)=O", "growth (%)": 100}

----------
Tested on: T-47D breast
Experiment: NCI-60 one-dose screen, 48 h
Conditions: 10 µM unless noted
This is part of a sample that, as a whole, favours compounds with a hit. Of some 83,000 tested, about 20% had one in any assay. Activity calls are given as the source filed them. Rule for the calls: active = growth percent below 10; inactive = the rest.
Labels: label 1 for active, label 0 for inactive

{"molecule": "C=C1C(=O)O[C@H]2[C@H]1CC/C(Cn1cc(Cc3c[nH]c4ccccc34)nn1)=C\\CC[C@@]1(C)O[C@@H]21", "answer_label": "label 1"}
{"molecule": "CN(C)CCOc1ccc(-c2nc3ccc(-c4nc5ccc(N6CCN(C)CC6)cc5[nH]4)cc3[nH]2)cc1", "answer_label": "label 0"}
{"molecule": "COc1cc(NCCCCCN=C(N)NC(N)=NC(C)C)c2ncccc2c1", "answer_label": "label 0"}
{"molecule": "CCCCNC(=O)NS(=O)(=O)c1ccc(N2N=C(c3cc(C)ccc3C)CC2c2cc(OC)c(OC)c(OC)c2)cc1 (stereo unspecified)", "answer_label": "label 0"}
{"molecule": "COc1ccc(-c2cc(=O)[nH]c3c(OC)c4ccccc4c(OC)c23)cc1", "answer_label": "label 0"}
{"molecule": "N=c1c2ccccc2nc2n1CCCCC2", "answer_label": "label 0"}
{"molecule": "COc1cccc(-c2cn3c(ccc4ccccc43)n2)c1", "answer_label": "label 0"}
{"molecule": "COc1c(Cl)cc(Cl)cc1Cl", "answer_label": "label 0"}
{"molecule": "N#Cc1c2c(nc3n[nH]c(N)c13)CCCC2", "answer_label": "label 0"}
{"molecule": "Nc1nc(SCc2ccccc2)c2ncn(C3CCCC3)c2n1", "answer_label": "label 0"}
{"molecule": "CN(C)c1ccc(C2Nc3ccccc3-n3cccc32)cc1 (stereo unspecified)", "answer_label": "label 0"}

----------
System: SNB-19 CNS
Test: NCI-60 one-dose screen, 48 h (100 = growth as untreated, 0 = no growth, -100 = all killed)
Settings: 10 µM unless noted
Compounds without any hit were thinned out: in the full panel of roughly 83,000, 20% have a hit.
Some compounds, each annotated with its measured growth.
measured_attribute: growth (%)

{"given_smiles": "O=C1C(Cl)=C(Cl)C(=O)c2c1nc1n2CCCC1", "measured_attribute": "growth", "experimental_result": 96.4}
{"given_smiles": "CCN(C(=O)CN1CCN(c2cc3c(cc2F)c(=O)c(C(=O)O)cn3C2CC2)CC1)c1nc(-c2ccc(OC)cc2)cs1", "measured_attribute": "growth", "experimental_result": 78.2}
{"given_smiles": "O=S(=O)(NCCCNc1cc(-c2cn(-c3ccccc3)nc2-c2cccc(O)c2)ccn1)c1ccccc1", "measured_attribute": "growth", "experimental_result": 77.5}
{"given_smiles": "COc1ccc(-c2nn(-c3ccccc3)cc2/C=C/C(=O)OCc2cn(-c3ccc(F)c(Cl)c3)nn2)cc1", "measured_attribute": "growth", "experimental_result": 85}
{"given_smiles": "C#Cc1nc(Nc2cc(C)[nH]n2)c2ccccc2n1", "measured_attribute": "growth", "experimental_result": 13.3}
